Below, each entry is listed with its recorded Activity.
procedureDetails: Antioxidant activity assessed as DPPH radical scavenging activity at 10 uM after 25 mins
Assay type: functional
Please reply with the bare figure in % and do not write the unit itself.

Before answering, review these 3 worked examples.
> print(dat)
                                   molecule  outputunit  numericreadout
1  O=C1C(c2ccccc2)N(S(=O)(=O)c2ccc(O)cc2)C(=O)C(c2ccccc2)N1S(=O)(=O)c1ccc(O)cc1 (centres undefined)           %            52.9
2  O=C1C(Cc2ccccc2)N(S(=O)(=O)c2ccc(Cl)cc2)C(=O)C(Cc2ccccc2)N1S(=O)(=O)c1ccc(Cl)cc1 (centres undefined)           %            48.1
3  O=C1CN(S(=O)(=O)c2ccc(Br)cc2)C(=O)CN1S(=O)(=O)c1ccc(Br)cc1           %            47.1

As a next step, examine the molecule that follows.
Consider the molecule shown here: O=C1CN(S(=O)(=O)c2ccc(F)cc2)C(=O)CN1S(=O)(=O)c1ccc(F)cc1 What is its recorded Activity?
37.1

---

procedureDetails: Antioxidant activity assessed as DPPH radical scavenging activity at 10 uM after 25 mins
Assay type: functional
quantityKind: Activity (%)
Please reply with the bare figure in % and do not write the unit itself.

Consider the compound shown here: Nc1ccc(S(=O)(=O)N2C(=O)C(c3ccccc3)N(S(=O)(=O)c3ccc(N)cc3)C(=O)C2c2ccccc2)cc1 (configuration not stated) What is its recorded Activity?
56.2

Also need O=C1C(Cc2ccccc2)N(S(=O)(=O)c2cccc(O)c2)C(=O)C(Cc2ccccc2)N1S(=O)(=O)c1cccc(O)c1 (configuration not stated) , thanks.
57.1

Also need O=C1O[C@H]([C@@H](O)CO)C(O)=C1O , thanks.
37.1

Also need O=C1C(c2ccccc2)N(S(=O)(=O)c2ccc([N+](=O)[O-])cc2)C(=O)C(c2ccccc2)N1S(=O)(=O)c1ccc([N+](=O)[O-])cc1 (configuration not stated) , thanks.
42.4

Also need COc1cc2c(cc1OC)C(=O)C(CC1CCN(Cc3ccccc3)CC1)C2 (configuration not stated) , thanks.
60.1

Also need Nc1ccc(S(=O)(=O)N2CC(=O)N(S(=O)(=O)c3ccc(N)cc3)CC2=O)cc1 , thanks.
55.7

Also need O=C1CN(S(=O)(=O)c2ccccc2)C(=O)CN1S(=O)(=O)c1ccccc1 , thanks.
39.5

Also need O=C1CN(S(=O)(=O)c2ccc(Cl)cc2)C(=O)CN1S(=O)(=O)c1ccc(Cl)cc1 , thanks.
36.2

Also need Cc1ccc(S(=O)(=O)N2C(=O)C(c3ccccc3)N(S(=O)(=O)c3ccc(C)cc3)C(=O)C2c2ccccc2)cc1 (configuration not stated) , thanks.
38.1

Also need O=C1C(Cc2ccccc2)N(S(=O)(=O)c2ccc(O)cc2)C(=O)C(Cc2ccccc2)N1S(=O)(=O)c1ccc(O)cc1 (configuration not stated) , thanks.
58.1

Also need CCCS(=O)(=O)N1CC(=O)N(S(=O)(=O)CCC)CC1=O , thanks.
31.4

Also need Cc1ccc(S(=O)(=O)N2CC(=O)N(S(=O)(=O)c3ccc(C)cc3)CC2=O)cc1 , thanks.
34.8

Also need CCCCS(=O)(=O)N1CC(=O)N(S(=O)(=O)CCCC)CC1=O , thanks.
65.7

Also need O=C1C(c2ccccc2)N(S(=O)(=O)c2ccc(Br)cc2)C(=O)C(c2ccccc2)N1S(=O)(=O)c1ccc(Br)cc1 (configuration not stated) , thanks.
45.7

Also need COc1ccc(S(=O)(=O)N2CC(=O)N(S(=O)(=O)c3ccc(OC)cc3)CC2=O)cc1 , thanks.
48.6

---

Below, each entry is listed with its recorded Activity.
procedureDetails: Antioxidant activity assessed as DPPH radical scavenging activity at 20 uM after 25 mins
Type: functional
Please reply with the bare figure in % and do not write the unit itself.

compound	quantityKind	numericReadout
Cc1ccc(S(=O)(=O)N2CC(=O)N(S(=O)(=O)c3ccc(C)cc3)CC2=O)cc1	Activity	46.7
O=C1C(Cc2ccccc2)N(S(=O)(=O)c2ccc(O)cc2)C(=O)C(Cc2ccccc2)N1S(=O)(=O)c1ccc(O)cc1 (stereo unspecified)	Activity	68.6
COc1cc2c(cc1OC)C(=O)C(CC1CCN(Cc3ccccc3)CC1)C2 (stereo unspecified)	Activity	74.6
O=C1CN(S(=O)(=O)c2cccc(Cl)c2)C(=O)CN1S(=O)(=O)c1cccc(Cl)c1	Activity	55.2
O=C1C(Cc2ccccc2)N(S(=O)(=O)c2cccc(Br)c2)C(=O)C(Cc2ccccc2)N1S(=O)(=O)c1cccc(Br)c1 (stereo unspecified)	Activity	64.3
Nc1ccc(S(=O)(=O)N2CC(=O)N(S(=O)(=O)c3ccc(N)cc3)CC2=O)cc1	Activity	62.9

Consider the compound shown here: O=C1C(Cc2ccccc2)N(S(=O)(=O)c2ccc([N+](=O)[O-])cc2)C(=O)C(Cc2ccccc2)N1S(=O)(=O)c1ccc([N+](=O)[O-])cc1 (stereo unspecified) What is its recorded Activity?
54.8

Also need Cc1ccc(S(=O)(=O)N2C(=O)C(c3ccccc3)N(S(=O)(=O)c3ccc(C)cc3)C(=O)C2c2ccccc2)cc1 (stereo unspecified) , thanks.
56.2

Also need O=C1C(Cc2ccccc2)N(S(=O)(=O)c2ccc(Cl)cc2)C(=O)C(Cc2ccccc2)N1S(=O)(=O)c1ccc(Cl)cc1 (stereo unspecified) , thanks.
60

Also need O=C1CN(S(=O)(=O)c2ccc(F)cc2)C(=O)CN1S(=O)(=O)c1ccc(F)cc1 , thanks.
50.5

Also need O=C1C(Cc2ccccc2)N(S(=O)(=O)c2ccc(Br)cc2)C(=O)C(Cc2ccccc2)N1S(=O)(=O)c1ccc(Br)cc1 (stereo unspecified) , thanks.
64.8

Also need O=C1C(c2ccccc2)N(S(=O)(=O)c2cccc(Br)c2)C(=O)C(c2ccccc2)N1S(=O)(=O)c1cccc(Br)c1 (stereo unspecified) , thanks.
63.3

Also need CCCS(=O)(=O)N1CC(=O)N(S(=O)(=O)CCC)CC1=O , thanks.
59.2

Also need Nc1ccc(S(=O)(=O)N2C(=O)C(c3ccccc3)N(S(=O)(=O)c3ccc(N)cc3)C(=O)C2c2ccccc2)cc1 (stereo unspecified) , thanks.
66.7

Also need O=C1C(c2ccccc2)N(S(=O)(=O)c2ccc([N+](=O)[O-])cc2)C(=O)C(c2ccccc2)N1S(=O)(=O)c1ccc([N+](=O)[O-])cc1 (stereo unspecified) , thanks.
54.3

Also need O=C1CN(S(=O)(=O)c2ccccc2)C(=O)CN1S(=O)(=O)c1ccccc1 , thanks.
52.4

---

procedureDetails: Selectivity index, ratio of IC50 for electric eel AChE to IC50 for equine serum BuChE
Below, each entry is listed with its recorded Ratio IC50.

Before answering, review these 7 worked examples.
> print(dat)
                                   compound  quantitykind  result
1  O=C1CN(S(=O)(=O)c2cccc(Cl)c2)C(=O)CN1S(=O)(=O)c1cccc(Cl)c1    Ratio IC50     0.3
2  O=C1CN(S(=O)(=O)c2ccc(F)cc2)C(=O)CN1S(=O)(=O)c1ccc(F)cc1    Ratio IC50     0.4
3  O=C1C(Cc2ccccc2)N(S(=O)(=O)c2ccc(O)cc2)C(=O)C(Cc2ccccc2)N1S(=O)(=O)c1ccc(O)cc1 (stereo not drawn)    Ratio IC50     0.3
4  O=C1CN(S(=O)(=O)c2ccc(Cl)cc2)C(=O)CN1S(=O)(=O)c1ccc(Cl)cc1    Ratio IC50     0.3
5  Nc1ccc(S(=O)(=O)N2C(=O)C(c3ccccc3)N(S(=O)(=O)c3ccc(N)cc3)C(=O)C2c2ccccc2)cc1 (stereo not drawn)    Ratio IC50   < 0.5
6  O=C1C(Cc2ccccc2)N(S(=O)(=O)c2ccc([N+](=O)[O-])cc2)C(=O)C(Cc2ccccc2)N1S(=O)(=O)c1ccc([N+](=O)[O-])cc1 (stereo not drawn)    Ratio IC50     0.4
7  Cc1ccc(S(=O)(=O)N2CC(=O)N(S(=O)(=O)c3ccc(C)cc3)CC2=O)cc1    Ratio IC50   < 0.6

As a next step, examine the compound that follows.
Consider the compound shown here: O=C1C(c2ccccc2)N(S(=O)(=O)c2ccc(Br)cc2)C(=O)C(c2ccccc2)N1S(=O)(=O)c1ccc(Br)cc1 (stereo not drawn) What is its recorded Ratio IC50?
0.2

---

Below, each entry is listed with its recorded Activity.
procedureDetails: Antioxidant activity assessed as DPPH radical scavenging activity at 20 uM after 25 mins
Type: functional
Please reply with the bare figure in % and do not write the unit itself.

> print(dat)
                                   compound  numericreadout
1  O=C1C(c2ccccc2)N(S(=O)(=O)c2ccc(Br)cc2)C(=O)C(c2ccccc2)N1S(=O)(=O)c1ccc(Br)cc1 (stereo not given)            63.8
2  O=C1C(c2ccccc2)N(S(=O)(=O)c2ccc(Cl)cc2)C(=O)C(c2ccccc2)N1S(=O)(=O)c1ccc(Cl)cc1 (stereo not given)            60.3
3  CCCCS(=O)(=O)N1CC(=O)N(S(=O)(=O)CCCC)CC1=O            56.7
4  O=C1CN(S(=O)(=O)c2ccc(Br)cc2)C(=O)CN1S(=O)(=O)c1ccc(Br)cc1            60.4
5  O=C1C(c2ccccc2)N(S(=O)(=O)c2ccc(O)cc2)C(=O)C(c2ccccc2)N1S(=O)(=O)c1ccc(O)cc1 (stereo not given)            65.2
6  Cc1cccc(S(=O)(=O)N2C(=O)C(c3ccccc3)N(S(=O)(=O)c3cccc(C)c3)C(=O)C2c2ccccc2)c1 (stereo not given)            55.2
7  O=C1C(Cc2ccccc2)N(S(=O)(=O)c2cccc(O)c2)C(=O)C(Cc2ccccc2)N1S(=O)(=O)c1cccc(O)c1 (stereo not given)            66.2
8  COc1ccc(S(=O)(=O)N2CC(=O)N(S(=O)(=O)c3ccc(OC)cc3)CC2=O)cc1            57.6
9           O=C1O[C@H]([C@@H](O)CO)C(O)=C1O            48.8

Consider the compound shown here: O=C1CN(S(=O)(=O)c2ccc(Cl)cc2)C(=O)CN1S(=O)(=O)c1ccc(Cl)cc1 What is its recorded Activity?
55.2
